# MEASUREMENT_DESCRIPTION: xn = mol fraction of the nth substance listed
# ASSAY_CONTEXT: 298.15 K; 101 kPa; x1 = 0.1
REPORTED_METRIC: viscosity (mPa·s)
Record the value in mPa·s, omitting the unit from your answer.

Example results:
COMPOUND	UNIT_DESCRIPTOR	viscosity
CCCCBr + c1ccccc1	mPa·s	0.583
C1CCNCC1 + O	mPa·s	3.06
COCCO + O	mPa·s	2.023

Pending compound:
## Task Entry CCN(C=O)CC + NC=O has what viscosity?
## Result 3.55

----------
# MEASUREMENT_DESCRIPTION: xn = mol fraction of the nth substance listed
# ASSAY_CONTEXT: 323.15 K; 100 kPa; x2 = 0.625
viscosity values for the compounds below.
Quick reminder: number only, in mPa·s, skip the unit.

Guide cases for viscosity, answers given:
COMPOUND	UNIT_DESCRIPTOR	viscosity
CC(CC(C)(C)C)CC(C)(C)CC(C)(C)C (centres undefined) + C1CC[C@H]2CCCC[C@H]2C1	mPa·s	1.884
CC(CC(C)(C)C)CC(C)(C)CC(C)(C)C (centres undefined) + CC1CCCCC1	mPa·s	0.953
CC(CC(C)(C)C)CC(C)(C)CC(C)(C)C (centres undefined) + CCCCCCCCCCCCC	mPa·s	1.33

Now examine the next entry.
## Task Quick check: viscosity of C1CC[C@H]2CCCC[C@H]2C1 + CC1CCCCC1 ?
## Result 0.837

----------
# ASSAY_CONTEXT: 298.15 K; 100 kPa
Listing: viscosity of selected molecules
Give the value in mPa·s but do not write mPa·s after it.

Some molecules with recorded viscosity:
MOLECULE	viscosity [mPa·s]
CC[N+](CC)(CC)CC.[OH-]	4.94
CCCC(C)O (centres undefined)	3.426

## Task Any idea what its viscosity is? The molecule is CCCCNCCCC
## Result 0.81

## Task Please report the recorded viscosity for CCCCCCn1cc[n+](C)c1C.O=S(=O)([N-]S(=O)(=O)C(F)(F)F)C(F)(F)F .
## Result 129

----------
# MEASUREMENT_DESCRIPTION: xn = mol fraction of the nth substance listed
# ASSAY_CONTEXT: 313.15 K; 100 kPa; x2 = 0.625
REPORTED_METRIC: viscosity (mPa·s)
Numeric only. Scale: mPa·s

MOLECULE	viscosity / mPa·s
CC(CC(C)(C)C)CC(C)(C)CC(C)(C)C (centres undefined) + CCCCCCCCCCCCC	1.57
CC(CC(C)(C)C)CC(C)(C)CC(C)(C)C (centres undefined) + CC1CCCCC1	1.096
C1CC[C@H]2CCCC[C@H]2C1 + CC1CCCCC1	0.944

## Task Would you mind telling me what viscosity value was observed for CC(CC(C)(C)C)CC(C)(C)CC(C)(C)C (centres undefined) + C1CC[C@H]2CCCC[C@H]2C1 ?
## Result 2.259

----------
Entries and their viscosity
# MEASUREMENT_DESCRIPTION: xn = mol fraction of the nth substance listed
# ASSAY_CONTEXT: 313.15 K; 100 kPa; x2 = 0.125
# output: bare number, implied unit mPa·s

COMPOUND	viscosity (mPa·s)
CC(CC(C)(C)C)CC(C)(C)CC(C)(C)C (centres undefined) + CC1CCCCC1	2.1

## Task Which value of viscosity has been reported for CC(CC(C)(C)C)CC(C)(C)CC(C)(C)C (centres undefined) + C1CC[C@H]2CCCC[C@H]2C1 in the records?
## Result 2.364

## Task Consider the compound shown here: C1CC[C@H]2CCCC[C@H]2C1 + CC1CCCCC1 What is its recorded viscosity?
## Result 1.858

## Task Name the recorded viscosity for CC(CC(C)(C)C)CC(C)(C)CC(C)(C)C (centres undefined) + CCCCCCCCCCCCC .
## Result 2.15

----------
A collection of compounds and their measured viscosity
# MEASUREMENT_DESCRIPTION: xn = mol fraction of the nth substance listed
# ASSAY_CONTEXT: 293.15 K; 100 kPa; x2 = 0.625
Field: numeric (mPa·s). Do not append units.

// known answers, use as guide
COMPOUND	REPORTED_METRIC	UNIT_DESCRIPTOR	TEST_VALUE
CC(CC(C)(C)C)CC(C)(C)CC(C)(C)C (centres undefined) + C1CC[C@H]2CCCC[C@H]2C1	viscosity	mPa·s	3.456
CC(CC(C)(C)C)CC(C)(C)CC(C)(C)C (centres undefined) + CCCCCCCCCCCCC	viscosity	mPa·s	2.29
C1CC[C@H]2CCCC[C@H]2C1 + CC1CCCCC1	viscosity	mPa·s	1.3

# next compound below
## Task Quick one: viscosity for CC(CC(C)(C)C)CC(C)(C)CC(C)(C)C (centres undefined) + CC1CCCCC1 ?
## Result 1.52

----------
In this section, each of the molecules is paired with its reported viscosity.
# MEASUREMENT_DESCRIPTION: xn = mol fraction of the nth substance listed
# ASSAY_CONTEXT: 313.15 K; 100 kPa; x2 = 0.25
Numbers only here, please. The scale is mPa·s.

Worked cases, answers included:
MOLECULE	UNIT_DESCRIPTOR	viscosity
CC(CC(C)(C)C)CC(C)(C)CC(C)(C)C (centres undefined) + CCCCCCCCCCCCC	mPa·s	1.96
CC(CC(C)(C)C)CC(C)(C)CC(C)(C)C (centres undefined) + CC1CCCCC1	mPa·s	1.886
C1CC[C@H]2CCCC[C@H]2C1 + CC1CCCCC1	mPa·s	1.6

# input for lookup
## Task Form field: reported viscosity of CC(CC(C)(C)C)CC(C)(C)CC(C)(C)C (centres undefined) + C1CC[C@H]2CCCC[C@H]2C1
## Result 2.334

----------
The entries below come with measured viscosity values attached.
# MEASUREMENT_DESCRIPTION: xn = mol fraction of the nth substance listed
# ASSAY_CONTEXT: 323.15 K; 100 kPa; x2 = 0.375
Return type: number; implicit unit mPa·s.

COMPOUND	REPORTED_METRIC	TEST_VALUE
CC(CC(C)(C)C)CC(C)(C)CC(C)(C)C (centres undefined) + CC1CCCCC1	viscosity	1.329

## Task Return reported viscosity; argument: CC(CC(C)(C)C)CC(C)(C)CC(C)(C)C (centres undefined) + CCCCCCCCCCCCC
## Result 1.51

## Task Entry C1CC[C@H]2CCCC[C@H]2C1 + CC1CCCCC1 : reported viscosity = ?
## Result 1.168

## Task Field request: viscosity | item: CC(CC(C)(C)C)CC(C)(C)CC(C)(C)C (centres undefined) + C1CC[C@H]2CCCC[C@H]2C1
## Result 1.911

----------
Entries and their measured viscosity follow.
# ASSAY_CONTEXT: 308.15 K; 100 kPa
The reply should contain only the number, in mPa·s.

ITEM_SMILES	TEST_VALUE
CCCCNCCCC	0.71
CC[N+](CC)(CC)CC.[OH-]	4.43
CCCCCCn1cc[n+](C)c1C.O=S(=O)([N-]S(=O)(=O)C(F)(F)F)C(F)(F)F	78

Now, please, on to the next compound.
## Task Look up viscosity: COCCO
## Result 1.292

----------
# ASSAY_CONTEXT: 313.15 K; 101 kPa
REPORTED_METRIC: viscosity (mPa·s)
Respond with the bare value in mPa·s.

ITEM_SMILES	UNIT_DESCRIPTOR	TEST_VALUE
CC[N+](CC)(CC)CC.[OH-]	mPa·s	4.27
CC(=O)[O-].CC[NH+](CC)CC	mPa·s	14.81

Kindly consider the entry below.
## Task Request the reported viscosity associated with CCCC(=O)O
## Result 1.12
